molecular target: Estrogen receptor beta (Homo sapiens); experiment: qHTS assay to identify small molecule agonists of the estrogen receptor beta (ER-beta) signaling pathway (AID 1259377); conditions: ER-beta-UAS-bla HEK293T, beta-lactamase FRET ratio, 16 h; series mostly up to 92.4 µM
Inconclusive results are not listed. Calls of active or inactive are those of the source. The call rests on the fitted dose curve; in most records, active means well fitted activation curve with a large enough effect in the signal ratio in the repeat runs (not every such curve was filed as active); inconclusive means weak or mixed curves, or effect the other way; inactive means flat fitted curve, though single readings scatter; the % refers to the signal ratio.
Outcome codes: T for active, F for inactive

In [3]: df
Out[3]:
                                    compound  qualitative_label
 0                Cc1cccc(OCCOc2cccc(C)c2)c1                  F
 1                     c1ccc(CNCc2ccccc2)cc1                  F
 2            CC(C)(C)c1cc(O)c(C(C)(C)C)cc1O                  F
 3          CCCCOC(O)CC (stereo unspecified)                  F
 4                             CN(C)CCCNCCCN                  F
 5  Cc1ccc(O)c([C@H](CCN(C(C)C)C(C)C)c2ccccc2)c1                  F
 6           CCOC(=O)CC(=O)c1cc(F)c(Cl)nc1Cl                  F
 7                       C=C(C)C(=O)OCCN(C)C                  F
 8                CCOc1ccc(NC(=O)CC(C)=O)cc1                  F
 9  CCOc1nc2cccc(C(=O)O)c2n1Cc1ccc(-c2ccccc2-c2nn[nH]n2)cc1                  F
10                   Oc1ccc(Sc2ccc(O)cc2)cc1                  T
11  CC1(C)CCC(C)(C)c2cc(NC(=O)c3ccc(C(=O)O)cc3)ccc21                  F
12       O=C(NN1CCCC1)NS(=O)(=O)c1ccc(Cl)cc1                  F
13                                 C=CCCCCCC                  F
14  C#CCOC(=O)[C@@H](C)Oc1ccc(Oc2ncc(Cl)cc2F)cc1                  F
15  Cn1c(=O)c2c(ncn2CC(O)CO)n(C)c1=O (stereo unspecified)                  F
16  CC(C)CCCCCCOC(=O)c1ccc(C(=O)OCCCCCCC(C)C)c(C(=O)OCCCCCCC(C)C)c1                  F
17  C[C@H](CCC(=O)O)[C@H]1CC[C@H]2[C@@H]3[C@H](O)C[C@@H]4C[C@H](O)CC[C@]4(C)[C@H]3CC[C@]12C                  F
18                 CCCCOC(=O)/C=C\C(=O)OCCCC                  F
19  CC[C@]12CCCN3CCc4c(n(c5ccccc45)C(=O)C1)[C@@H]32                  F
20                                NCc1ccccc1                  F
21  CCOC(=O)[C@H](CCc1ccccc1)N[C@H]1CCc2ccccc2N(CC(=O)O)C1=O                  F
22          CC1(C)[C@H]2CC[C@]1(C)[C@H](O)C2                  F
23  CCc1nn(C2CCCCC2)c2cc(C3(C#N)CCC(C(=O)O)CC3)ccc12 (stereo unspecified)                  F
24  O=C=NC1CCC(CC2CCC(N=C=O)CC2)CC1 (stereo unspecified)                  F
25                      CC(=O)NCCCS(=O)(=O)O                  F
